Data origin: BigSolDB 2.1

TEST_PARAMETERS: in n-octanol, 293.2 K
Catalogue of solubility (mole fraction) values
Lab note: record just the number, no unit beside it.

* C[C@]12CC[C@@H]3c4ccc(O)cc4CC[C@H]3[C@@H]1C[C@@H](O)[C@@H]2O | 0.00593

Kindly review the next compound as well.
Answer with the recorded solubility (mole fraction) of `C[C@@H]1CC[C@@]2(OC1)O[C@H]1C[C@H]3[C@@H]4CC=C5C[C@@H](O)CC[C@]5(C)[C@H]4CC[C@]3(C)[C@H]1[C@@H]2C` only. 0.00348

====

TEST_PARAMETERS: in NMP, 323.2 K
MEASUREMENT_KIND: solubility (mole fraction)
Lab note: record the figure alone, no unit after it.

- C[C@@H]1CC[C@@]2(OC1)O[C@H]1C[C@H]3[C@@H]4CC=C5C[C@@H](O)CC[C@]5(C)[C@H]4CC[C@]3(C)[C@H]1[C@@H]2C: 0.0196

Now for a further compound.
Return solubility (mole fraction) (reported value) for this compound: `C[C@]12CC[C@@H]3c4ccc(O)cc4CC[C@H]3[C@@H]1C[C@@H](O)[C@@H]2O` 0.00491
